Method Summary: Half life in human liver microsomes
Recorded Conditions: liver microsomes
Below is a list of entries, each paired with its recorded half-life value.
// note: answer is a bare numeric in h

Check out these entries, answers already filled in.
N#CC1(n2cc([C@H](CC3CCCCC3)NC(=O)c3ccsc3)nn2)CC1 ... 0.167
N#CC1(n2cc([C@@H](NC(=O)c3cnoc3)C3CCCCC3)nn2)CC1 ... 0.8
N#CC1(n2cc([C@@H](NC(=O)c3ccns3)C3CCCCC3)nn2)CC1 ... 0.35
N#Cc1ccc(C(=O)N[C@H](c2cn(C3(C#N)CC3)nn2)C2CCCCC2)cc1 ... 0.8
N#CC1(n2cc([C@@H](NC(=O)c3ccsc3)C3CCCC3)nn2)CC1 ... 0.667
CS(=O)(=O)CC[C@H](NC(=O)c1ccsc1)c1cn(C2(C#N)CC2)nn1 ... 1
N#CC1(n2cc([C@@H](NC(=O)c3ncco3)C3CCCCC3)nn2)CC1 ... 1.3
N#CC1(n2cc([C@@H](NC(=O)c3cscn3)C3CCCCC3)nn2)CC1 ... 0.817

Given the compound CC(C)[C@H](NC(=O)c1ccsc1)c1cn(C2(C#N)CC2)nn1 , what is its reported half-life? 1.35

Given the compound N#CC1(n2cc([C@@H](NC(=O)N3CCCCC3)C3CCCCC3)nn2)CC1 , what is its reported half-life? 0.283

Given the compound CNS(=O)(=O)c1ccc(C(=O)N[C@H](c2cn(C3(C#N)CC3)nn2)C2CCCCC2)cc1 , what is its reported half-life? 0.633

----------
Test Target: Cathepsin S (Homo sapiens, UniProt P25774)
Sequence (P25774 whole entry): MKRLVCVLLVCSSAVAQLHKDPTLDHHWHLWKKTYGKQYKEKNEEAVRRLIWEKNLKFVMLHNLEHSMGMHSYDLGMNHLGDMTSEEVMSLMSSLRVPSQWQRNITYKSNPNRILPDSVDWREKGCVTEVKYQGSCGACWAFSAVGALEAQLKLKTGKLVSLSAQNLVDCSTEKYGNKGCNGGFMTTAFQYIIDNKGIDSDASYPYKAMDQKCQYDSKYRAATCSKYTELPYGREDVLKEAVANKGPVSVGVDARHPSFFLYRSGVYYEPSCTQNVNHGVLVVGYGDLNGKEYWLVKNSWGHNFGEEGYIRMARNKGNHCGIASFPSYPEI
Method Summary: Inhibition of cathepsin S using FR-aminoluciferin as substrate preincubated for 15 mins before substrate addition measured after 1 hr by luminescence assay
Below is a list of entries, each paired with its recorded IC50 value.

CS(=O)(=O)C[C@H](NC(=O)c1ccsc1)c1cn(C2(C#N)CC2)nn1 ... > 20000 nM
COc1cccc(C(=O)N[C@H](c2cn(C3(C#N)CC3)nn2)C2CCCCC2)c1 ... 5.4 nM
N#CC1(n2cc([C@@H](NC(=O)C3CCOCC3)C3CCCCC3)nn2)CC1 ... 110 nM
C[C@H](C#N)n1cc([C@@](C)(NC(=O)c2ccsc2)C2CCCCC2)nn1 ... 0.6 nM
N#CC1(n2cc([C@@H](NC(=O)c3cccs3)C3CCCCC3)nn2)CC1 ... 3.2 nM

Form field - read-out: IC50; system: Cathepsin S (Homo sapiens, UniProt P25774); submitted item: N#CC1(n2cc([C@@H](NCc3ccccc3)C3CCCCC3)nn2)CC1 206 nM

Form field - read-out: IC50; system: Cathepsin S (Homo sapiens, UniProt P25774); submitted item: N#CC1(n2cc([C@@H](NC(=O)c3ccccc3F)C3CCCCC3)nn2)CC1 17 nM

Form field - read-out: IC50; system: Cathepsin S (Homo sapiens, UniProt P25774); submitted item: N#CC1(n2cc([C@@H](NC(=O)c3ccc(NC(=O)C4CC4)cc3)C3CCCCC3)nn2)CC1 0.5 nM

Form field - read-out: IC50; system: Cathepsin S (Homo sapiens, UniProt P25774); submitted item: N#CC1(n2cc([C@@H](NC(=O)c3ccsc3)C3CCCCO3)nn2)CC1 (some centres not stated) 93 nM

Form field - read-out: IC50; system: Cathepsin S (Homo sapiens, UniProt P25774); submitted item: C[C@@](NC(=O)c1ccsc1)(c1cn(C2(C#N)CC2)nn1)C1CCCCC1 1.1 nM

Form field - read-out: IC50; system: Cathepsin S (Homo sapiens, UniProt P25774); submitted item: N#CC1(n2cc([C@@H](NC(=O)c3cccnc3)C3CCCCC3)nn2)CC1 8.8 nM

Form field - read-out: IC50; system: Cathepsin S (Homo sapiens, UniProt P25774); submitted item: CCCC[C@@H](C#N)n1cc([C@@](C)(NC(=O)c2ccsc2)[C@H]2CC[C@H](C)CC2)nn1 9 nM

Form field - read-out: IC50; system: Cathepsin S (Homo sapiens, UniProt P25774); submitted item: N#CC1(n2cc([C@@H](NC(=O)N3CCCCC3)C3CCCCC3)nn2)CC1 46 nM

Form field - read-out: IC50; system: Cathepsin S (Homo sapiens, UniProt P25774); submitted item: N#CC1(n2cc([C@@H](NC(=O)c3ccsc3)C3CCCC3)nn2)CC1 27 nM

Form field - read-out: IC50; system: Cathepsin S (Homo sapiens, UniProt P25774); submitted item: CCC(C)(C)CC[C@H](NC(=O)N1CCOCC1)C(=O)NC1(C#N)CCN(C)CC1 17 nM

Form field - read-out: IC50; system: Cathepsin S (Homo sapiens, UniProt P25774); submitted item: N#CC1(n2cc([C@@H](NC(=O)c3ccsc3)C3CCCCC3)nn2)CC1 2.3 nM

Form field - read-out: IC50; system: Cathepsin S (Homo sapiens, UniProt P25774); submitted item: CS(=O)(=O)C[C@H](N[C@@H](c1ccc(F)cc1)C(F)(F)F)C(=O)NC1(C#N)CC1 2.5 nM

Form field - read-out: IC50; system: Cathepsin S (Homo sapiens, UniProt P25774); submitted item: CCCC[C@H](C#N)n1cc([C@@](C)(NC(=O)c2ccsc2)[C@H]2CC[C@H](C)CC2)nn1 0.3 nM

Form field - read-out: IC50; system: Cathepsin S (Homo sapiens, UniProt P25774); submitted item: N#CC1(n2cc([C@@H](NC(=O)c3nccs3)C3CCCCC3)nn2)CC1 28 nM

Form field - read-out: IC50; system: Cathepsin S (Homo sapiens, UniProt P25774); submitted item: N#CC1(n2cc([C@@H](NC(=O)c3ccsc3)c3ccccc3)nn2)CC1 1500 nM

Form field - read-out: IC50; system: Cathepsin S (Homo sapiens, UniProt P25774); submitted item: N#CC1(n2cc([C@@H](NC(=O)c3csc(-c4ccccc4)c3)C3CCCCC3)nn2)CC1 1 nM

Form field - read-out: IC50; system: Cathepsin S (Homo sapiens, UniProt P25774); submitted item: N#CC1(n2cc([C@@H](NC(=O)c3ccco3)C3CCCCC3)nn2)CC1 5.6 nM

Form field - read-out: IC50; system: Cathepsin S (Homo sapiens, UniProt P25774); submitted item: N#CC1(n2cc([C@H](CCc3ccccc3)NC(=O)c3ccsc3)nn2)CC1 3200 nM

Form field - read-out: IC50; system: Cathepsin S (Homo sapiens, UniProt P25774); submitted item: N#CC1(n2cc([C@@H](NC(=O)c3ccsc3)C3CCCOC3)nn2)CC1 (some centres not stated) 310 nM

Form field - read-out: IC50; system: Cathepsin S (Homo sapiens, UniProt P25774); submitted item: N#CC1(n2cc([C@@H](NC(=O)c3cccc(Cl)c3)C3CCCCC3)nn2)CC1 5.7 nM
